System: HL-60(TB) leukemia
test protocol: NCI-60 one-dose screen, 48 h
setup conditions: 10 µM unless noted
The panel holds about 83,000 compounds, 20% with a hit somewhere; the sample as a whole holds those more often. Calls of active or inactive are those of the source. Rule for the calls: active = growth percent below 10; inactive = the rest.
Possible outcomes: yes (active), no (inactive)

>>> assigned_category("Cc1ccccc1Nc1cc(O)c2c(=O)cc(-c3ccccc3)oc2c1")
"yes"
>>> assigned_category("NC(=Nc1ccccc1)SCCCSC(N)=Nc1ccccc1")
"no"
>>> assigned_category("COc1ccc(/C=C2/CN(CCC#N)C/C(=C\\c3ccc(OC)cc3)C2=O)cc1")
"no"
>>> assigned_category("COC(=O)c1c2c(c[n+]([O-])c1C)C(=O)C=C(NCc1ccccc1)C2=O")
"yes"
>>> assigned_category("COC(=O)c1nc(-c2ccccc2)oc1S(=O)(=O)NCC(c1ccc(Cl)cc1)N1CCCCC1 (stereo not drawn)")
"no"
>>> assigned_category("Cn1c2ccccc2c2c3[nH][nH]c(=O)c3c3c4ccccc4[nH]c3c21")
"yes"
>>> assigned_category("COc1ccc(-c2cc(-c3cc(OC)ccc3O)[nH]c(=O)c2C#N)cc1")
"no"
>>> assigned_category("CC/C(Cc1ccccc1)=C(\\c1ccc(OCCN2CCCCCC2)cc1)c1ccc(OC(=O)NCc2ccccc2)cc1")
"no"
>>> assigned_category("CCCSc1nc2ccc(C)cc2cc1/C=[N+](\\[O-])c1ccccc1")
"no"
>>> assigned_category("COc1ccc(-c2nc(SCC(=O)Nc3ccc(C(C)=O)cc3)[nH]c(=O)c2C#N)cc1")
"no"
>>> assigned_category("Cc1nc2ccc(Cl)cn2c1-c1nnc(SCc2ccc([N+](=O)[O-])cc2)o1")
"no"
>>> assigned_category("COc1cc2c(cc1OCCCOC1=C=C=C(c3ccc4c(c3)c3cc(-c5ccc(OCCCOc6cc7c(cc6OC)C(=O)N6CCC[C@H]6C=N7)cc5)ccc3n4S(=O)(=O)c3ccc(C)cc3)C=C1)N=C[C@@H]1CCCN1C2=O")
"no"
>>> assigned_category("COc1cc2c(cc1OC)CN(C)C(C)C2 (stereo not drawn)")
"no"
>>> assigned_category("COc1ccc(-c2csc(C3=C(O)CN(CCCN4CCCC4=O)C3=N)n2)cc1OC")
"no"
>>> assigned_category("CN1C(=O)/C(=C2\\SC(=Nc3ccccc3)N(Nc3ccccc3)C2=O)c2ccccc21")
"no"
>>> assigned_category("COc1ccc2c(c1)CC/C(=C\\c1ccc(OCC(=O)Nc3nc4ccccc4s3)cc1)C2=O")
"no"
>>> assigned_category("CCC(C)[C@@H]1NC(=O)[C@@H]2CCCN2C(=O)[C@H](Cc2ccccc2)NC(=O)[C@@H]2CCCN2C(=O)[C@H](Cc2ccccc2)NC(=O)[C@@H]2CCCN2C(=O)[C@H](Cc2ccccc2)NC1=O (stereo partly drawn)")
"no"
>>> assigned_category("Cc1cccc2c3c(sc12)C(c1ccc(Cl)cc1)C(C#N)=C(N)O3 (stereo not drawn)")
"yes"
>>> assigned_category("COc1cccc(NCc2nnc(Nc3ccc(Cl)cc3)c3ccccc23)c1")
"yes"
>>> assigned_category("O=C(CC(=O)c1cccc(Cl)c1)c1cccc(Cl)c1")
"yes"
>>> assigned_category("C#C[C@]1(O)CC[C@H]2[C@@H]3CC=C4c5sc(Nc6ccccc6)nc5CC[C@]4(C)[C@H]3CC[C@@]21C")
"yes"
>>> assigned_category("O=C(Oc1cccc2ccccc12)c1ccccc1C(=O)c1ccccc1")
"yes"
>>> assigned_category("CCOC(=O)Nc1cc2c(c(N)n1)N=C(c1ccccc1)CO2")
"yes"
>>> assigned_category("O=C(Nc1nc(-c2ccc(Cl)cc2)cs1)c1cc(-c2ccc(Br)cc2)nc2ccc(Cl)cc12")
"yes"
>>> assigned_category("Cc1ccc(/C=C2\\CN(C(=O)CCN3CCC(=NO)CC3)C/C(=C\\c3ccc(C)cc3)C2=O)cc1")
"yes"
>>> assigned_category("Cc1ccc2sc3c(NCCN)nc4ccccc4c3c(=O)c2c1")
"no"
>>> assigned_category("CC(NC(=O)c1ccccc1)C(=O)Nc1ccccc1 (stereo not drawn)")
"no"
>>> assigned_category("NNC(=O)C1CC2c3ccccc3C1c1ccccc12 (stereo not drawn)")
"no"
>>> assigned_category("Cc1ccc(-c2nc(/C=N/Nc3cc(C)nc4ccc(Cl)cc34)c(C)o2)cc1")
"yes"
>>> assigned_category("Cc1nn(-c2ccccc2)c(Cl)c1/C=C(/NC(=O)c1ccccc1)c1nc2ccccc2[nH]1")
"no"
>>> assigned_category("CCCCCC#CC1OC23CCCCC2C(C#N)(C(=N)O3)C1(C#N)C#N (stereo not drawn)")
"no"
>>> assigned_category("COc1ccc(S(=O)(=O)Nc2cc(/C=C\\c3cc(OC)c(OC)c(OC)c3)cc(OC)c2OC)cc1OC")
"yes"
>>> assigned_category("O=C(/C=C/c1ccco1)c1cccc(Nc2nc(Nc3ccccc3)nc(Nc3ccccc3)n2)c1")
"no"
